testTarget: recombinant human SYK (GST-hSYK fusion protein) (Homo sapiens, UniProt P43405)
assaySummary: biochemical
particulars: rhSYK Activity (IC50), recombinant human GST-SYK 5 pM, ATP 25 μM, biotinylated substrate peptide 250 nM, HTRF, 10-dose titration
pIC50: −log10 of the molar value.
Below: a set of entries, each annotated with reported pIC50.

Completed entries (count: 6):
>>> print(df.to_string())
                                   compound        result
0  Cc1cc(Nc2nccc(C(F)(F)F)n2)cc(-c2cnc(C(=O)NCCCN(CCO)CCO)s2)c1 [Example 87A-36]        > 7.00
1  Cc1cc(Nc2nccc(C(F)(F)F)n2)cc(-c2cnc(CN)s2)c1 [Example 88A-40]        > 7.00
2  Cc1cc(Nc2nccc(C(F)(F)F)n2)cc(-c2cnc(CN3CCOC(CCO)C3)s2)c1 (centres unmarked) [Example 88B-11]        > 7.00
3  Cc1cc(Nc2nccc(OCCO)n2)cc(-c2cnc(C(O)(CO)CO)s2)c1 [Example 158]        > 7.00
4  Cc1cc(Nc2nccc(C(F)(F)F)n2)cc(-c2cnc(CNCC3(CO)COC3)s2)c1 [Example 88A-46]        > 7.00
5  CCN(C)C(=O)c1ncc(-c2cc(C)cc(Nc3nccc(C(F)(F)F)n3)c2)s1 [Example 87A-28]  6.00 to 7.00

Recorded pIC50 for Cc1cc(Nc2nccc(C(F)(F)F)n2)cc(-c2cnc(CNC3(C)CCCCC3CO)s2)c1 (centres unmarked) [Example 88A-55] , please?
> 7.00

Recorded pIC50 for CCc1cnc(Nc2cc(C)cc(-c3cnc(C4(O)CCC4)s3)c2)nc1 [Example 100A-6] , please?
6.00 to 7.00

---

testTarget: rhSYK (Homo sapiens, UniProt P43405)
particulars: read-out: rhSYK Activity; class symbol; where two forms are listed, one symbol per form
Below: a set of entries, each annotated with reported IC50.

Completed entries (count: 3):
In [3]: df
Out[3]:
                                   compound  metric          result
0  CC(O)(c1ccc(S(C)(=O)=O)s1)c1ncc(-c2cccc(Nc3nccc(C(F)(F)F)n3)c2)s1 (stereo not shown)    IC50  100 to 1000 nM
1  CCC(=O)C(O)(CC)c1ncc(-c2cccc(Nc3nccc(C(F)(F)F)n3)c2)s1 (stereo not shown)    IC50  100 to 1000 nM
2  Cc1cc(Nc2nccc(C(F)(F)F)n2)cc(-c2cnc(C(C)(O)c3ccc(CC(=O)O)cc3)s2)c1 (single isomer, unassigned) [Example 4A-60]    IC50        < 100 nM

Let us examine a further case.
Recorded IC50 for CCOC(=O)N1C2CCC1CC(O)(c1ncc(-c3cccc(Nc4nccc(C(F)(F)F)n4)c3)s1)C2 (stereo not shown) , please?
100 to 1000 nM

---

testTarget: UniProt P43405
particulars: read-out: rhSYK Activity; class symbol; where two forms are listed, one symbol per form
metric: IC50

Completed entries (count: 6):
>>> df
                                   compound  metric          result
0  OC(c1ccccn1)(c1nccs1)c1ncc(-c2cccc(Nc3nccc(C(F)(F)F)n3)c2)s1 (stereo not shown)    IC50  100 to 1000 nM
1  Cc1cc(Nc2nccc(C(F)(F)F)n2)cc(-c2cnc([C@]3(O)CC[C@@H](NC(=O)Cc4ccccn4)CC3)s2)c1    IC50        < 100 nM
2  Cc1cc(Nc2nccc(C(F)(F)F)n2)cc(-c2cnc([C@]3(O)CC[C@@H](NC(=O)Cn4ccnc4)CC3)s2)c1    IC50        < 100 nM
3  OC1(c2ncc(-c3cc(Nc4nccc(C(F)(F)F)n4)ccc3Cl)s2)CCC1    IC50  100 to 1000 nM
4  Cc1cc(Nc2nccc(C(F)(F)F)n2)cc(-c2cnc(C(C)(O)c3cccc(OCC(=O)O)c3)s2)c1 (stereo not shown)    IC50        < 100 nM
5  Cc1cc(Nc2nccc(C(F)(F)F)n2)cc(-c2cnc(C(O)(CO)CO)s2)c1    IC50        < 100 nM

Let us examine a further case.
Recorded IC50 for OC(c1ncc(-c2cccc(Nc3nccc(C(F)(F)F)n3)c2)s1)(C1CCCCC1)C(F)(F)F (stereo not shown) , please?
1000 to 10000 nM
